# ASSAYED_SYSTEM: T1, human SIRPγ on stably transfected CHO cells (human, UniProt Q9P1W8 29-387)
# T1 construct: also called Human SIRPγ CHO
# T1 sequence (Q9P1W8 29-387 limits assumed): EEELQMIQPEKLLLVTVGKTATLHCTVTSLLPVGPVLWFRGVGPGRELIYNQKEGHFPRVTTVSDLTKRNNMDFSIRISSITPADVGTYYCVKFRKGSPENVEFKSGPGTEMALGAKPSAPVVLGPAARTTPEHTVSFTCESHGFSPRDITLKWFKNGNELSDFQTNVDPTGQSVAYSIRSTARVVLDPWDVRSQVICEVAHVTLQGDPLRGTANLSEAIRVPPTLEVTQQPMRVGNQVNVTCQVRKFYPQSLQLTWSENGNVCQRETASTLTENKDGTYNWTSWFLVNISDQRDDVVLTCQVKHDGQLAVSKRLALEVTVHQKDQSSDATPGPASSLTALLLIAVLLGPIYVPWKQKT
# ASSAY_NAME: flow cytometry, myc-scFv PPE
# MFI fold change over parental CHO annotations
MEASUREMENT_NAME: MFI fold change over parental CHO (fold)

>>> reported_measurement("Antibody 33 (scFv, V domains shown, scFv in crude PPE, V5/myc-tagged) VH: QVQLVQSGAEVKKPGASVKVSCKASGYTFTSYYMHWVRQAPGQGLEWMGWMNPNSDNTGYAQKFQGRVTMTRDTSTSTVYMELSSLRSEDTAVYYCARVGVGYGYYYYGMDVWGQGTTVTVSS VL: DIQMTQSPSSLSASVGDRVTITCRAGQSIGDYLNWYQQKPGKAPKLLIYAASSLQSGVPSRFSGSGSGTDFTLTISSLQPEDFATYYCQQSYSTPWTFGQGTKVEIK")
20
>>> reported_measurement("Antibody 29 (scFv, V domains shown, scFv in crude PPE, V5/myc-tagged) VH: QVQLVQSGAEVKKPGASVKVSCKASGGTFSSYAISWVRQAPGQGLEWMGIINPSSSSTGYAQKFQGRVTMTRDTSTSTVYMELSSLRSEDTAVYYCARAGYYDSSGYYYSPYYGMDVWGQGTTVTVSS VL: EIVMTQSPATLSVSPGERATLSCRASQSISGSYLAWYQQKPGQAPRLLIYGASTRATGIPARFSGSGSGTEFTLTISSLQSEDFAVYYCQQYGSFPFTFGPGTKVDIK")
11.4
>>> reported_measurement("Antibody 11 (scFv, V domains shown, scFv in crude PPE, V5/myc-tagged) VH: QVQLVQSGAEVKKPGASVKVSCKASGYTFTSYDINWVRQAPGQGLEWMGWMNPNSGNTGYAQKFQGRVTMTRDTSTSTVYMELSSLRSEDTAVYYCAKGAVAGTYYYYGMDVWGQGTTVTVSS VL: DIQMTQSPSSLSASVGDRVTITCRASQTINNYLNWYQQKPGKAPKLLIYDASNLETGVPSRFSGSGSGTDFTLTISSLQPEDFATYYCQQANSFPLTFGQGTKVEIK")
3.98
>>> reported_measurement("Antibody 13 (scFv, V domains shown, scFv in crude PPE, V5/myc-tagged) VH: EVQLLESGGGLVQPGGSLRLSCAASGFTFSNSDMNWVRQAPGKGLEWVSYISSSGNTIYYADSVKGRFTISRDNSKNTLYLQMNSLRAEDTAVYYCARSNWNYPLDYYYMDVWGKGTTVTVSS VL: DIVMTQSPLSLPVTPGEPASISCRSSQSLLHSNGYNYLDWYLQKPGQSPQLLIYAASSLQSGVPDRFSGSGSGTDFTLKISRVEAEDVGVYYCMQGTHWPPTFGQGTKVEIK")
7.06
>>> reported_measurement("Antibody 31 (scFv, V domains shown, scFv in crude PPE, V5/myc-tagged) VH: QVQLVQSGAEVKKPGASVKVSCKASGGTFRSYAISWVRQAPGQGLEWMGWMNPNSGNTGYAQKFQGRVTMTRDTSTSTVYMELSSLRSEDTAVYYCARESVLKGGMDVWGQGTTVTVSS VL: DIVMTQSPDSLAVSLGERATINCRSSQSLFHSSTNANNLAWYQQKPGQPPKLLIYWASTRESGVPDRFSGSGSGTDFTLTISSLQAEDVAVYYCQQYYITPLTFGQGTRLEIK")
18.1

Data origin, for the record: patent US20240400677A1
